tested target: HLA-B*46:01
experimental protocol: IEDB peptide-MHC binding, purified MHC/competitive/fluorescence; filed as Kd, often an IC50 or EC50 that approximates it; bounds were set here for any values at or beyond the usual limits of such assays
particulars: source organism: Burkholderia vietnamiensis G4
measured parameter: Kd

stdin: Quick one: Kd for `WMRWGGWPF` ?
stdout: 418 nM

* * *

tested target: HLA-B*40:02
experimental protocol: IEDB peptide-MHC binding, purified MHC/competitive/radioactivity; filed as Kd, often an IC50 or EC50 that approximates it; bounds were set here for any values at or beyond the usual limits of such assays
particulars: source organism: Mammarenavirus machupoense
measured parameter: pKd
// pKd here means minus log10 of the molar concentration (mol/L)

stdin: Quick one: pKd of `EEPAALLPL` ?
stdout: 7.24
